Reference source for all entries: PubChem BioAssay AID1851

Target: Cytochrome P450 2C19 (Homo sapiens) (UniProt P33261)
Sequence (P33261 whole entry, looked up): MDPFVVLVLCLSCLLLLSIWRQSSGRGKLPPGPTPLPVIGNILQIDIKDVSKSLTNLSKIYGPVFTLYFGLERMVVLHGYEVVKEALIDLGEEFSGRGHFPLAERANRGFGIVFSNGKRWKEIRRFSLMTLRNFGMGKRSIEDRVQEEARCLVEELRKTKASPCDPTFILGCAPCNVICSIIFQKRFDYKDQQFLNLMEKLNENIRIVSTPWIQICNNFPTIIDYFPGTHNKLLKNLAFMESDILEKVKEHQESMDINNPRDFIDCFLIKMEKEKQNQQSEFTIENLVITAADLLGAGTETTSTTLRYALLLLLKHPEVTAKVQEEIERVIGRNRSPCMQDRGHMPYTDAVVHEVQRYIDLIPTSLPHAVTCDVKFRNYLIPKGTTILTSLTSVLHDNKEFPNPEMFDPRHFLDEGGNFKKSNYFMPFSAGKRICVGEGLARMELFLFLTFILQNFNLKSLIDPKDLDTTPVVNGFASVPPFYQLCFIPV
Assay: Cytochrome panel assay with activity outcomes
Details: recombinant CYP, pro-luciferin dealkylation, luminescence, p450-cyp2c19; series mostly up to 57.1 µM
Procedure: The P450 gene superfamily is involved in the metabolism and clearance of xenobiotics. This assay used various human CYP P450 isozymes to measure the dealkylation of various pro-luciferin substrates to luciferin. The luciferin is then measured by luminescence after the addition of a luciferase detection reagent. […] Inhibitors and some substrates limit the production of luciferin, and decrease measured luminescence. […] 8, Detection, 1 sec, ViewLux luminescent read […]
Hit rate of the full screen: of about 16,000 compounds, about 5,800 (36%) were called active. Inconclusive results (about 23%) are left out. Calls come from the whole dose curve; as a rule, active = well fitted curve in the direction sought with a large enough effect; inconclusive = small, poorly fitted or top-dose-only effect, or effect the other way; inactive = no such curve, though single readings can be large or run the other way. Some of the results follow.
Classes used: active, inactive

Molecule	Assigned label
COc1cccc(CNC(=O)CCNC(=O)Cn2ccc3ccccc3c2=O)c1	inactive
Cc1onc(C(=O)/C=C/N(C)C)c1C(=O)Nc1nccs1	inactive
Cn1c(SCC(=O)c2ccc3c(c2)Cc2ccccc2-3)nnc1-c1ccccc1	active
FC(F)(F)c1ccccc1-c1ccc2ncnc(N3CCOCC3)c2c1	active
COc1ccc(-n2c(=S)[nH]c3cc(C(=O)NCCCN4CCCC4=O)ccc3c2=O)cc1	active
Cc1onc(-c2c(Cl)cccc2Cl)c1C(=O)N1CCc2ccccc2C1	active
O=C(O)C1CCN(c2ncnc3ccc(-c4ccccc4C(F)(F)F)cc23)CC1	inactive
CCOC(=O)N1CCN(C(=O)c2ccc3c(=O)n(-c4ccc(OC)cc4)c(=S)[nH]c3c2)CC1	inactive
COC(=O)CN(c1ccc(OC)cc1)S(=O)(=O)c1c(C)noc1C	active
COc1cccc(-c2ccc3ncnc(N4CCOCC4)c3c2)c1	active
CN1CCN(c2ncnc3ccc(-c4ccccc4Cl)cc23)CC1	active
COC(=O)[C@H](N)Cc1ccc(Cl)cc1	inactive
Cc1ccc(S(=O)(=O)NCc2ccccc2)cc1	inactive
O=S(=O)(N/N=C/c1ccc2c(c1)OCCO2)c1ccc(Cl)cc1	active
CC1=CC(C)(C)Nc2ccc(CSc3ccccc3)cc21	active
O=S(=O)(N/N=C\c1ccc2c(c1)OCO2)c1ccc(Cl)cc1	active
COc1ccc(NC(=O)c2ccc(COc3ccccc3)o2)cc1	active
Cc1noc(C)c1C(=O)N1CCC2(CCCN(C(=O)Nc3cccc(F)c3)C2)CC1	inactive
COc1ccc(N(CC(=O)NCc2cccc(OC)c2)S(=O)(=O)c2c(C)noc2C)cc1	active
CCCCCCCCSc1nnc(CSc2nc3nc(C)cc(C)n3n2)o1	active
COc1ccccc1-c1ccc2ncnc(N3CCOCC3)c2c1	active
CCNc1ncc2nc(-c3ccc(F)cc3)c(=O)n(CCC#N)c2n1	inactive
C[C@@H](CCc1ccc(O)cc1)NCCc1ccc(O)c(O)c1	inactive
N=C1C(c2nc(-c3ccc(F)cc3)cs2)=C(O)CN1CCCN1CCOCC1	active
COc1ccc(CCC(C)Nc2cccc(F)c2)cc1 (stereo not drawn)	active
Cc1ccc(OCc2ccc(C(=O)Nc3nccs3)o2)cc1C	active
CCOC(=O)Cc1csc(NC(=O)c2c(-c3c(Cl)cccc3Cl)noc2C)n1	active
C/C=C\C[C@@H](C)[C@@H](O)[C@H]1C(=O)N[C@@H](CC)C(=O)N(C)CC(=O)N(C)[C@@H](CC(C)C)C(=O)N[C@@H](C(C)C)C(=O)N(C)[C@@H](CC(C)C)C(=O)N[C@@H](C)C(=O)N[C@H](C)C(=O)N(C)[C@@H](CC(C)C)C(=O)N(C)[C@@H](CC(C)C)C(=O)N(C)[C@@H](C(C)C)C(=O)N1C	inactive
Cc1onc(-c2c(Cl)cccc2Cl)c1C(=O)Nc1ccc2c(c1)OCO2	active
CCOC(=O)C(NC(C)=O)C(=O)O (stereo not drawn)	inactive
CCOC(=O)Cc1csc(NC(=O)c2ccc(S(=O)(=O)N3CCCCC3)cc2)n1	active
COc1ccc(C(=O)n2nc(-c3ccccc3)nc2SC)cc1	inactive
CS(=O)(=O)Nc1cccc(-c2ccc3ncnc(N4CCOCC4)c3c2)c1	inactive
CCn1c(N2CCN(C(=O)Nc3ccc(F)cc3)CC2)nc2ccccc21	active
CCN(C(=S)Nc1ccccc1F)C1CCCCC1	active
CCOC(=O)Cc1csc(NC(=O)c2ccc(Cl)nc2)n1	active
CN1CCN(c2nc3cc(C(F)(F)F)ccc3n3cccc23)CC1	active
O=C(CSc1nnc2c3ccccc3c3ccccc3c2n1)Nc1ccccc1	active
COC(=O)c1ccccc1NC(=O)c1ccc(Cn2cc(Cl)cn2)o1	active
Cc1ccccc1-c1ccc2ncnc(N3CCN(C)CC3)c2c1	inactive
COc1cc(C)nc(N2CCCC(C(=O)Nc3cc(Cl)ccc3OC)C2)n1 (stereo not drawn)	active
Cc1c(C)c2c(C)[nH]nc2oc1=O	active
CCCCNC(=O)NS(=O)(=O)c1ccc(C)cc1	inactive
